experiment: stimulators of insulin release from INS-1E, primary screen, cell-based, 5 mM glucose, NPC library (AID 1117329); conditions: rat INS-1E insulin secretion, at 10 µM, hits give high values; note: reference of the scale not given here
Decision: insulin secretion stimulation >= 3% yields 1, all other cases yield -1.

A selection of reference data follows.
COc1cccc(C(=O)CCN[C@@H](C)[C@H](O)c2ccccc2)c1 :: 1
O=C(O)c1ccc(=O)[nH]c1 :: -1
CC[N+](CC)(CC)CC :: -1
CCCCc1ccc(C(=O)O)nc1 :: -1
CC(=O)[O][Hg][c]1ccccc1 :: 1

Consider the record given below.
Would you say CCN(CC)CCOC(=O)C(O)(c1ccccc1)c1ccccc1 shows insulin secretion stimulation at minimum 3%?
1

* * *

system: Aerobactin synthetase IucA (Klebsiella pneumoniae, hypervirulent); assay: IucA enzyme inhibition, biochemical, LOPAC library, absorbance readout (AID 1346212); settings: IucA enzyme assay, absorbance (OD) readout; hits give low values;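 tested at 8 µM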;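 note: 100% = no compound wells and 0% = no enzyme wells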
Could you please report measured remaining activity for the items listed next?
Answers are plain numbers, in %.

Solved entries (count: 5):
Nc1nccc2c1ncn2[C@@H]1O[C@H](CO)[C@@H](O)[C@H]1O :: 95.9
COC(=O)Nc1nc2ccc(C(=O)c3cccs3)cc2[nH]1 :: 117
CNCC[C@H](Oc1ccc(C(F)(F)F)cc1)c1ccccc1 :: 93.6
NCCCC(N)(C(=O)O)C(F)F (stereo not given) :: 121
O=c1cc(O)cc(/C=C/c2ccc(O)c(O)c2)o1 :: 93.8

# batch size: 7; output remaining activity per entry
1. O=C(O)c1cc([N+](=O)[O-])ccc1NCCCc1ccccc1
2. CCN(CC)CCOC(=O)c1ccc(N)cc1
3. CCCCOc1cc(CC2CNC(=O)N2)ccc1OC (stereo not given)
4. COC(=O)c1c(-c2cc(OC)c(OC)c(OC)c2)c2ccnc(OCc3ncccn3)c2c(=O)n1Cc1ccnc(C)c1
5. NO
6. C#CCN(C)Cc1ccccc1
7. O=c1ccc2ccc(O)c(O)c2o1

[118, 106, 110, 101, 100, 80.8, 116]

# batch size: 2; output remaining activity per entry
1. CCCCCCC(C)(C)c1ccc([C@@H]2C[C@H](O)CC[C@H]2CCCO)c(O)c1
2. OCCN1CCN(CCCN2c3ccccc3Sc3ccc(Cl)cc32)CC1

106
112

# batch size: 6; output remaining activity per entry
1. CCN1CCc2nc(N)oc2CC1
2. CCc1c(C(=O)OC)ncc2[nH]c3cc(OC)c(OC)cc3c12
3. COc1cccc2c1[C@@H]1CN(CCCCn3c(=O)[nH]c4c(sc5ncc(-c6ccccc6)nc54)c3=O)C[C@@H]1CO2
4. CCCN(CCC)C(=O)C(CCC(=O)O)NC(=O)c1ccccc1 (stereo not given)
5. N[C@H](C(=O)O)[C@H](O)C(=O)O
6. COC(=O)C1=CCCN(C)C1

1. 119
2. 93
3. 98.2
4. 99.4
5. 106
6. 111

# batch size: 3; output remaining activity per entry
1. N#CC(C#N)=Cc1ccc([N+](=O)[O-])c(O)c1
2. CCCCCC(O)CCCC(=O)O (stereo not given)
3. CC1CNCCN1S(=O)(=O)c1cccc2cnccc12 (stereo not given)

1: 80.4; 2: 101; 3: 95.7

* * *

assay: SU-DIPG-XXV glioma cell viability, MIPE5.0 library, qHTS (AID 1347068);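 for IC50: cells exposed to compound for 48 hours before viability readout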
Inconclusive results are not listed. Calls of active or inactive are those of the source. The limit is not given here; nearly all actives have IC50 up to about 30 µM.
Thanks in advance; please answer with one of these: active, inactive

Cc1ccccc1-n1c(Cn2cnc3c(N)ncnc32)nc2cccc(C)c2c1=O :: inactive
CCOP(=O)(OCC)C(C)NC(=O)N(CCCl)N=O (configuration not stated) :: inactive
CC(C)C[C@H](CN)CC(=O)O :: inactive

// return assay outcome for CCN1CCN(C(=O)Cc2ccc(Nc3ncc(F)c(Nc4ccc(C(=O)Nc5ccccc5Cl)cc4)n3)cc2)CC1
active

// return assay outcome for CN(C)NC(=O)CCC(=O)O
inactive

// return assay outcome for COC1=C[C@@H]2[C@@H]3Cc4ccc(OC)c(O)c4[C@]2(CCN3C)CC1=O
inactive
